pKi data for JAK3 (Homo sapiens) follow.
pKi: −log10 of the molar value. Counter-ions that a name gives are not always drawn.

Asked: Determine from records and report pKi for C[C@H](Nc1cc(N2CCOCC2)nc(-c2c[nH]c3ncncc23)n1)C(=O)NCC(F)(F)F
Given back: < 5.30

Asked: Specify reported pKi for the molecule shown: C1=C(c2cccc(-c3c[nH]c4ncncc34)n2)CCNC1 [Compound 29, hydrochloride]
Given back: 5.30 to 6.30

Asked: Note down pKi recorded for C[C@@H](Nc1ccnc(-c2c[nH]c3ncncc23)n1)C(=O)N(C)CC(F)(F)F
Given back: > 6.30

Asked: Give pKi for C[C@H](Nc1ccnc(-c2c[nH]c3ncncc23)n1)c1ccc(F)cc1
Given back: > 6.30

Asked: Identify the reported pKi for the following entry. O=C(NCC(F)(F)F)[C@@H]1CCN1c1cnc(-c2c[nH]c3ncncc23)nc1
Given back: 5.30 to 6.30

Asked: Answer with the recorded pKi for the molecule listed here: O=C(NCC(F)(F)F)C1(Nc2ccnc(-c3c[nH]c4ncncc34)n2)CCCC1
Given back: > 6.30

Asked: Report pKi, nothing else, for this molecule: O=C(CNc1ccnc(-c2c[nH]c3ncncc23)n1)NCC(F)(F)F
Given back: > 6.30

Asked: For the molecule CC[C@](C)(Nc1nc(-c2c[nH]c3ncncc23)ncc1F)C(=O)NCC(F)(F)F , report pKi.
Given back: > 6.30

Asked: Determine its reported pKi: CNC(=O)C(CC(F)(F)F)Nc1nc(-c2c[nH]c3ncncc23)ncc1F (centres unmarked)
Given back: 5.30 to 6.30

Asked: Indicate its recorded pKi; the molecule in question is O=C(CCNc1nc(-c2c[nH]c3ncncc23)ncc1F)NCC(F)(F)F
Given back: > 6.30

Asked: Assign pKi to the following record: C[C@@H](Nc1nc(-c2c[nH]c3ncncc23)ncc1F)c1ccc(F)cc1
Given back: > 6.30

Asked: Look up pKi of CC[C@@H](C(=O)NCC(F)(F)F)n1cnc2cnc(-c3c[nH]c4ncncc34)nc21 and report it.
Given back: > 6.30

Asked: Using the record for C[C@H](Nc1cc(C(=O)N2CCCC2)nc(-c2c[nH]c3ncncc23)n1)C(=O)NCC(F)(F)F , state its measured pKi.
Given back: > 6.30

Asked: Supply measured pKi of O=C(Cn1ccc2cnc(-c3c[nH]c4ncncc34)nc21)NCC(F)(F)F in your reply.
Given back: > 6.30

Asked: Specify measured pKi for CC(C)(Nc1nc(-c2c[nH]c3ncncc23)nc2ccccc12)C(=O)NCC(F)(F)F .
Given back: > 6.30

Asked: Check the records and state pKi for C[C@H](Nc1cc(C(=O)N(C)Cc2ccccc2)nc(-c2c[nH]c3ncncc23)n1)C(=O)NCC(F)(F)F
Given back: 5.30 to 6.30

Asked: Dear colleague, please send me the reported pKi for CC1(C(=O)NCC(F)(F)F)CCCN1c1nc(-c2c[nH]c3ncncc23)ncc1F (centres unmarked) when you can.
Given back: > 6.30

###

- target.system: JAK3 (Homo sapiens)
- Sequence (P52333 1-1124): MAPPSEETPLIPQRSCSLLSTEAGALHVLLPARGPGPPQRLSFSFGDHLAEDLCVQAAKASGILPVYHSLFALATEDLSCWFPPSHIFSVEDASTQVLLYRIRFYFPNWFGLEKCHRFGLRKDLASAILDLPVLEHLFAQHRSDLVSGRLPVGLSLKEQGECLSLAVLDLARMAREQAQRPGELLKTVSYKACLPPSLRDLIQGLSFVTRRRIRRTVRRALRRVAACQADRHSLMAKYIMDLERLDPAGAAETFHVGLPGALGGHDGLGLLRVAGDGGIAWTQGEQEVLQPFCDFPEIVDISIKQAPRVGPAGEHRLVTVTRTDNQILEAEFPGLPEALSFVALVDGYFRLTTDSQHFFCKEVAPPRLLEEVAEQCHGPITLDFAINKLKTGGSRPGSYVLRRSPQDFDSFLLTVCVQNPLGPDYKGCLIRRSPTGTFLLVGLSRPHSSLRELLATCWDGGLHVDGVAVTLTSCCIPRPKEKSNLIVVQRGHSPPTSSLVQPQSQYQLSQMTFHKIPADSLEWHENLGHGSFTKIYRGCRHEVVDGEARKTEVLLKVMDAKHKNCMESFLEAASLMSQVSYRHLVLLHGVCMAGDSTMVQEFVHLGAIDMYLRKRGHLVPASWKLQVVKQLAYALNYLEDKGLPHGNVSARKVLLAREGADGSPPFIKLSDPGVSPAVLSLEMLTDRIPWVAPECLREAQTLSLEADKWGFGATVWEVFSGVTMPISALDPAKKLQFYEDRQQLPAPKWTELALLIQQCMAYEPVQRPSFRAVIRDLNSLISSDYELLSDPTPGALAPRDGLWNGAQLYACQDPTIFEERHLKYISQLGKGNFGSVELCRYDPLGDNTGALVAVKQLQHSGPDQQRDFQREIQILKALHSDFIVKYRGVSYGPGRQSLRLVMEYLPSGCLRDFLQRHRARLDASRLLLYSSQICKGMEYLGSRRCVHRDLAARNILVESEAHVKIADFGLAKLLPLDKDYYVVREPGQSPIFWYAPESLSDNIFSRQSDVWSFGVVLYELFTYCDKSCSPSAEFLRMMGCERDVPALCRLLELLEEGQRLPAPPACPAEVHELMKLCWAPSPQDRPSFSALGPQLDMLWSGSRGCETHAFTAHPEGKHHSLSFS
readout.name: Ki

Asked: Given CC(C)[C@@H](Nc1ccnc(-c2c[nH]c3ncncc23)n1)C(=O)NCC(F)(F)F , report its Ki on JAK3 (Homo sapiens).
Given back: < 500 nM

Asked: GET Ki where system = JAK3 (Homo sapiens) and item = CC(C)(C(=O)NCC(F)(F)F)n1cnc2cnc(-c3c[nH]c4ncncc34)nc21
Given back: < 500 nM

Asked: Please report Ki with JAK3 (Homo sapiens) for item C[C@@H](Nc1ccnc(-c2c[nH]c3ncncc23)n1)c1ccc(F)cc1 .
Given back: < 500 nM

Asked: With JAK3 (Homo sapiens) as the test system, provide measured Ki for this compound: C[C@H](Nc1nc(-c2c[nH]c3ncncc23)cc(N2CCOCC2)n1)C(=O)NCC(F)(F)F
Given back: 500 to 5000 nM

Asked: # assay system JAK3 (Homo sapiens): give Ki of C[C@H](Nc1nc(-c2c[nH]c3ncncc23)cc(N2CCCC2)n1)C(=O)NCC(F)(F)F
Given back: 500 to 5000 nM

Asked: Provide the reported Ki (system: JAK3 (Homo sapiens)) for CC(=O)N1[C@H](C)CN(c2cccc(-c3c[nH]c4ncncc34)n2)C[C@@H]1C
Given back: < 500 nM

Asked: Look up and report Ki, with JAK3 (Homo sapiens) as system, for O=C(NCC(F)(F)F)C1(Nc2ccnc(-c3c[nH]c4ncncc34)n2)CCOC1 (stereo not shown)
Given back: < 500 nM

Asked: Please report the measured Ki for C[C@H](c1ccccc1)N(C)c1ccnc(-c2c[nH]c3ncncc23)n1 tested on JAK3 (Homo sapiens).
Given back: < 500 nM

Asked: Jot down Ki (JAK3 (Homo sapiens)) of OC[C@@H]1CCCN1c1nc(-c2c[nH]c3ncncc23)ncc1F .
Given back: 500 to 5000 nM

Asked: Recall the reported Ki of C[C@H](Nc1cc(-c2nnn[nH]2)cc(-c2c[nH]c3ncncc23)n1)C(=O)NCC(F)(F)F when tested on JAK3 (Homo sapiens).
Given back: < 500 nM

Asked: Answer with Ki of O=C(NCC(F)(F)F)[C@H]1C[C@H](O)CN1c1nc(-c2c[nH]c3ncncc23)ncc1F measured for JAK3 (Homo sapiens).
Given back: < 500 nM

Asked: Specify the recorded Ki for CC[C@@H](Nc1ncnc(-c2c[nH]c3ncncc23)n1)C(=O)NCC(F)(F)F , system: JAK3 (Homo sapiens).
Given back: < 500 nM

Asked: Return reported Ki for target or system JAK3 (Homo sapiens), item C[C@@H](Nc1ncnc(-c2c[nH]c3ncncc23)n1)C(=O)NCC(F)(F)F .
Given back: < 500 nM

Asked: With JAK3 (Homo sapiens) as the test system, provide measured Ki for this compound: C[C@H](Nc1cc(OC2CCOC2)nc(-c2c[nH]c3ncncc23)n1)C(=O)NCC(F)(F)F (stereo partly shown)
Given back: 500 to 5000 nM

Asked: Give Ki only, for O=C(NCC(F)(F)F)[C@@H]1CCCCN1c1ccnc(-c2c[nH]c3ncncc23)n1 , using JAK3 (Homo sapiens) data.
Given back: < 500 nM

Asked: Jot down Ki (JAK3 (Homo sapiens)) of CC[C@@](C)(Nc1ccnc(-c2c[nH]c3ncncc23)n1)C(=O)NCC(F)(F)F .
Given back: < 500 nM

###

- target.system: JAK2 (Homo sapiens, UniProt O60674)
- Sequence (O60674 whole entry): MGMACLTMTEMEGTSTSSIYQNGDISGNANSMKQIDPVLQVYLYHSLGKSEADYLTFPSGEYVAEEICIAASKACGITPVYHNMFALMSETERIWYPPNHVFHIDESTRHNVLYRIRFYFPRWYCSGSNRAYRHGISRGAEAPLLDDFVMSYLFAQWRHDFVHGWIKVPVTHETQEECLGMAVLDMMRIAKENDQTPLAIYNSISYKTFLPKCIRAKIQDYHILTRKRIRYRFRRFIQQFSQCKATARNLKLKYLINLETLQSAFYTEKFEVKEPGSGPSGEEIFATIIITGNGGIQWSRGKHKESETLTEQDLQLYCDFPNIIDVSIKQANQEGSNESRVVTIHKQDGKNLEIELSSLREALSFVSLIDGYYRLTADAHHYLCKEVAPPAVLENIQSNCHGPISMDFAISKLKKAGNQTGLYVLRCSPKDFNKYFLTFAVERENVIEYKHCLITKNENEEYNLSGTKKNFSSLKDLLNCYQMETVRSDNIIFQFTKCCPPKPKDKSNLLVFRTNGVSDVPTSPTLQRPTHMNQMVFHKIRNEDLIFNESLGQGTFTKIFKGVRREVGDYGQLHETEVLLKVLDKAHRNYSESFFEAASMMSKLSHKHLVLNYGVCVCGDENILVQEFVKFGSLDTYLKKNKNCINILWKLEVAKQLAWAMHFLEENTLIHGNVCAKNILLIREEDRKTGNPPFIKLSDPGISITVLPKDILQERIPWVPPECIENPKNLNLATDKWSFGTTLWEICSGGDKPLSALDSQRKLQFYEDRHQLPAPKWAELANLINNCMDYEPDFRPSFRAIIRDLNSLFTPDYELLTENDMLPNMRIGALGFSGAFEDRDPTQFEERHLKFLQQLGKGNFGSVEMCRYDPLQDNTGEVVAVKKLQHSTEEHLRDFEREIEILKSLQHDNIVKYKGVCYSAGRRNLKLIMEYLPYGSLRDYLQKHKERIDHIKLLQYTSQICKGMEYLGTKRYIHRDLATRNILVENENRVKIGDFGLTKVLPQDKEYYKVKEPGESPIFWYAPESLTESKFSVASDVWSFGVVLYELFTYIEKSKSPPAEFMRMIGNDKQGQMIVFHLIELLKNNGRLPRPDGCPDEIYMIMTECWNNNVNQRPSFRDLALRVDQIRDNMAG
Kindly state Ki for each of the entries shown.

Asked: Identify the reported Ki for the following entry. CC1(C(=O)NCC(F)(F)F)CCCN1c1nc(-c2c[nH]c3ncncc23)ncc1F (stereo not shown)
Given back: < 500 nM

Asked: Give recorded Ki. O=C(Cn1ccc2cnc(-c3c[nH]c4ncncc34)nc21)NCC(F)(F)F
Given back: < 500 nM

Asked: Consider the compound C[C@H](Nc1nc(-c2c[nH]c3ncncc23)cc(N2CCCC2)n1)C(=O)NCC(F)(F)F and give its recorded Ki.
Given back: > 5000 nM

Asked: Dear colleague, please send me the reported Ki for C[C@@H](c1ccccc1)N(C)c1ccnc(-c2c[nH]c3ncncc23)n1 when you can.
Given back: 500 to 5000 nM
